Please go through the items and note down their % inhibition Apol 90'.
# system-under-test: P. falciparum apicoplast DNA polymerase (Pf-apPOL) (Plasmodium falciparum, UniProt Q8ILY1)
# Sequence (Q8ILY1 entry or part of it): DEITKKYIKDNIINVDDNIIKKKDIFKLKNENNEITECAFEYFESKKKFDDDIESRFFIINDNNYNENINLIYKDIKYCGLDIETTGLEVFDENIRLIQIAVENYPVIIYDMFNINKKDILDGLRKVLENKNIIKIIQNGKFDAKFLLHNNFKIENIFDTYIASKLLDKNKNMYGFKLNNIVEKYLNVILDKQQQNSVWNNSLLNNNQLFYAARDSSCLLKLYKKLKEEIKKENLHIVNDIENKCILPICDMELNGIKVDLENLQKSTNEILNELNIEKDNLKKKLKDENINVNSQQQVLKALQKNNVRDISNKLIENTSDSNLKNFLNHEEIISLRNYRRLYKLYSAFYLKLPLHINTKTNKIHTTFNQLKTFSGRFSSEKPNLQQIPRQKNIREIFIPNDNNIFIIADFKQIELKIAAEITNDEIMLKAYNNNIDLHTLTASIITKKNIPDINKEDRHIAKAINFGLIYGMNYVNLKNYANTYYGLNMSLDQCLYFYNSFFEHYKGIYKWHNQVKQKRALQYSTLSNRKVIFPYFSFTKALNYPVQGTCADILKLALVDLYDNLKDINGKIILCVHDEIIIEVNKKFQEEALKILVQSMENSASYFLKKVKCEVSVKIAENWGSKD
# assay-comment: Fluorescence-based high-throughput DNA polymerase assay (molecular beacon), primary screen and dose-response
# Format: biochemical
# test-context: DRC-1; 90'; conc 2.5
Give your result in % as a bare value.

Answer with the recorded % inhibition Apol 90' of `COC(=O)c1sc(-c2ccc(C(C)(C)C)cc2)cc1NC(=O)CCC(=O)O` only.
13.7781

Answer with the recorded % inhibition Apol 90' of CCOc1nc2cccc(C(=O)OC(C)OC(=O)OC3CCCCC3)c2n1Cc1ccc(-c2ccccc2-c2nnn[nH]2)cc1 (centres unmarked) only.
4.826

Answer with the recorded % inhibition Apol 90' of `O=C(O)c1ccc(COc2cc([N+](=O)[O-])cc3cccnc23)cc1` only.
7.929

Answer with the recorded % inhibition Apol 90' of `Cc1ccc(N2NC(=O)/C(=C\c3ccc(O)c([N+](=O)[O-])c3)C2=O)cc1Cl` only.
11.8681

Answer with the recorded % inhibition Apol 90' of Cc1cccc(NC(=O)Cn2ccc3c(=O)[nH]ccc32)c1C [Molecule 11, O=C(Cn1ccc2c1cc[nH]c2=O)Nc1cccc(c1C)C] only.
0.4643

---

Please go through the items and note down their % inhibition Apol 40'.
# system-under-test: P. falciparum apicoplast DNA polymerase (Pf-apPOL) (Plasmodium falciparum)
# assay-comment: Fluorescence-based high-throughput DNA polymerase assay (molecular beacon), primary screen and dose-response
# Assay type: biochemical
# test-context: DRC-2; concentration 80; 40'
Output should be the measured figure followed by the unit it is expressed in.

Answer with the recorded % inhibition Apol 40' of `O=C(Nc1c2c(nn1-c1ccccc1)CSC2)c1ccco1` only.
75%

Answer with the recorded % inhibition Apol 40' of `Nc1ncnc(NC2CCCCC2)c1[N+](=O)[O-]` only.
71%

Answer with the recorded % inhibition Apol 40' of `Cc1ccc(C2=N/C(=C\c3ccc(I)o3)C(=O)O2)cc1[N+](=O)[O-]` only.
70%

Answer with the recorded % inhibition Apol 40' of O=C(Cn1ccc2c(=O)[nH]ccc21)Nc1ccccc1Cl [Molecule 19, O=C(Cn1ccc2c1cc[nH]c2=O)Nc1ccccc1Cl] only.
56%

Answer with the recorded % inhibition Apol 40' of CCOc1ccc2cc(C3=NN(C(=O)CCC(=O)O)C(c4ccc(C)cc4)C3)c(=O)[nH]c2c1 (stereo not drawn) only.
74%

Answer with the recorded % inhibition Apol 40' of `COc1ccc(-c2occ(C(=O)O)c2C(=O)O)cc1` only.
74%

Answer with the recorded % inhibition Apol 40' of `Oc1cccnc1/N=C/c1cc(I)cc(I)c1O` only.
72%

Answer with the recorded % inhibition Apol 40' of `O=C1c2ccccc2C(=O)c2c1oc1c3c(ccc21)OCN(C1CCCC1)C3` only.
60%

Answer with the recorded % inhibition Apol 40' of `COc1cc(/C=C2\C(=O)N(c3ccc(C(=O)O)cc3)N=C2C(F)(F)F)ccc1OCC(C)C` only.
78%

---

# system-under-test: UniProtKB Q8ILY1
# assay-comment: Fluorescence-based high-throughput DNA polymerase assay (molecular beacon), primary screen and dose-response
# Type: biochemical
# test-context: 'DNA Pol'; screening value, unit not given; 90 min, 10 µM
quantity-name: DNA Pol
// print number alone

Answer with the recorded DNA Pol of O=C(c1c[nH]c2ncccc12)N1CCCCCC1 [Molecule 51, O=C(c1c[nH]c2c1cccn2)N1CCCCCC1] only.
25

Answer with the recorded DNA Pol of `O=C(Nc1nnc(-c2cccs2)o1)c1ccc([N+](=O)[O-])o1` only.
45

Answer with the recorded DNA Pol of CSCCC(C)(O)CNC(=O)C1CC1 (centres unmarked) only.
33

Answer with the recorded DNA Pol of `CN(C)C=C1SCc2ccccc2C1=O` only.
85

Answer with the recorded DNA Pol of `O=[N+]([O-])c1cc2c(cc1CN1CCN(c3cccc(Cl)c3)CC1)OCO2` only.
40

---

# system-under-test: P. falciparum apicoplast DNA polymerase (Pf-apPOL) (Plasmodium falciparum, UniProt Q8ILY1)
# assay-comment: Fluorescence-based high-throughput DNA polymerase assay (molecular beacon), primary screen and dose-response
# Type: biochemical
# test-context: DRC-2, 40', concentration 20 (unit not given)
# Source text: The HT assay employs a molecular beacon, a stem-loop DNA template with a Cy3 dye and the Black Hole Quencher on the 3′ and 5′ ends of the DNA, respectively. Pf-apPOL concentration is based on a calculated absorptivity of ε280 = 56750 M^−1 cm^−1. […] To identify apPOL inhibitors we utilised our previously developed high-throughput DNA polymerase assay. […] The assay accurately recapitulates the kinetic behaviour of apPOL, as measured through more conventional low-throughput gel-based assays. […]
Classification field: enter YES for % inhibition Apol 40' values not below 60%, NO for values below it.

Check the entry `O=[N+]([O-])/C=C/c1ccc(-c2ccc(Br)cc2)o1` : does % inhibition Apol 40' equal or exceed 60%?
NO

Check the entry OC(C#Cc1ccccc1)c1ccco1 (stereo not shown) : does % inhibition Apol 40' equal or exceed 60%?
YES

Check the entry `O=C(O)c1ccc(-c2nc3cc(-c4ccc5nc(-c6ccc(C(=O)O)cc6)[nH]c5c4)ccc3[nH]2)cc1` : does % inhibition Apol 40' equal or exceed 60%?
NO

Check the entry O=C(Cn1ccc2c(=O)[nH]ccc21)Nc1ccc(Cl)cc1 [Molecule 36, O=C(Cn1ccc2c1cc[nH]c2=O)Nc1ccc(cc1)Cl] : does % inhibition Apol 40' equal or exceed 60%?
YES

Check the entry `O=c1cc(CN2CCCCC2)c2cc3c(cc2o1)OCO3` : does % inhibition Apol 40' equal or exceed 60%?
NO

Check the entry O=c1[nH]c2ccc(Br)cc2c(-c2ccccc2)c1C1=NNC(c2ccco2)C1 (stereo not shown) : does % inhibition Apol 40' equal or exceed 60%?
YES

---

Please go through the items and note down their IC50.
# system-under-test: P. falciparum apicoplast DNA polymerase (Pf-apPOL) (Plasmodium falciparum, UniProt Q8ILY1)
# assay-comment: Fluorescence-based high-throughput DNA polymerase assay (molecular beacon), primary screen and dose-response
# Format: biochemical
# test-context: read-out: IC50 Pf-apPOL; Table 2
Give your result in µM as a bare value.

Answer with the recorded IC50 of OC(C#Cc1ccccc1)c1ccco1 (stereo not drawn) only.
7.4

Answer with the recorded IC50 of `O=C1Nc2ccc(I)cc2C1=Cc1cc(Br)c(O)c(Br)c1` only.
15

Answer with the recorded IC50 of `O=C(O)c1ccc(-c2nc3cc(-c4ccc5nc(-c6ccc(C(=O)O)cc6)[nH]c5c4)ccc3[nH]2)cc1` only.
5.9

Answer with the recorded IC50 of `O=[N+]([O-])c1ccc(/C=C/c2ccc3ccccc3n2)o1` only.
8

Answer with the recorded IC50 of `COc1ccc(CNC(=O)Cn2nc3c(c2NC(=O)Cc2cccs2)CSC3)cc1` only.
10

Answer with the recorded IC50 of CCOc1nc2cccc(C(=O)OC(C)OC(=O)OC3CCCCC3)c2n1Cc1ccc(-c2ccccc2-c2nnn[nH]2)cc1 (stereo not drawn) only.
7.6

Answer with the recorded IC50 of `O=[N+]([O-])/C=C/c1ccc(-c2ccc(Br)cc2)o1` only.
15

Answer with the recorded IC50 of `CC(C)(C)c1cc(C(=O)C(C#N)=NNc2cccc(Cl)c2)no1` only.
8

Answer with the recorded IC50 of `Cn1nc(-c2nnc(-c3ccccc3F)o2)c2c1CCN(C(=O)c1ccccc1Cl)C2` only.
7.2

---

Please go through the items and note down their % inhibition T4 90' 20.
# system-under-test: bacteriophage T4 DNA polymerase (Enterobacteria phage T4)
# Construct: made in house
# Sequence (P04415 whole entry): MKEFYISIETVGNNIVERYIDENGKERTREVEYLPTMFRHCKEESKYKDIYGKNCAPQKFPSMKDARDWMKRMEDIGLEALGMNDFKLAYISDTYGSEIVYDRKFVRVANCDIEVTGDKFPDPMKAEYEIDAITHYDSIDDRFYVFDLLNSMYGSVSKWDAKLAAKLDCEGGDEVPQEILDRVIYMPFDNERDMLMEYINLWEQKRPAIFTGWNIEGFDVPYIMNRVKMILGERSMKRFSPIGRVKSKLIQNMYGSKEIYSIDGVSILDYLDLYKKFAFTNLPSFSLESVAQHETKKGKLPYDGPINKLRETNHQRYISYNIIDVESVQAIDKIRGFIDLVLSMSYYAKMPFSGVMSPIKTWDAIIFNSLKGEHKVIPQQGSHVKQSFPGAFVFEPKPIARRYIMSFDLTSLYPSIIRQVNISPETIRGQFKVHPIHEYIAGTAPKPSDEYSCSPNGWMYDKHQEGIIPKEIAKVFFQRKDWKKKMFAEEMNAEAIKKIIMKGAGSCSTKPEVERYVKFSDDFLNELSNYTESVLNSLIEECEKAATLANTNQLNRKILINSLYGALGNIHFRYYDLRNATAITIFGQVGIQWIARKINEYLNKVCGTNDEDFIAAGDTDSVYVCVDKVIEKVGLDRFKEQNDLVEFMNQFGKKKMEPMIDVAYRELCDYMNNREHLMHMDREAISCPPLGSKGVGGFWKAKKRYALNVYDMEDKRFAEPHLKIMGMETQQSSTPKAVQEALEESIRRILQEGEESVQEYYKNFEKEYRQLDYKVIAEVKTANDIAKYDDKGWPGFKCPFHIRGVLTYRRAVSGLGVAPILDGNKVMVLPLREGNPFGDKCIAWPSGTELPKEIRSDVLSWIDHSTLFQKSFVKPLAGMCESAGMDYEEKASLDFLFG
# assay-comment: Counter-screen against bacteriophage T4 DNA polymerase
# Format: biochemical
# test-context: DRC-2; read at 90'; concentration 20
Give your result in % as a bare value.

Answer with the recorded % inhibition T4 90' 20 of `COc1ccc(/C=C/c2cc(C(=O)O)c3ccccc3n2)cc1` only.
25

Answer with the recorded % inhibition T4 90' 20 of `O=C(c1ccccc1)N1CCc2c(nc3cc(-c4ccccc4)[nH]n3c2=O)C1` only.
-17

Answer with the recorded % inhibition T4 90' 20 of C#CC(C=CC)OC(=O)c1ccccc1C(=O)O (centres unmarked) only.
0.217

Answer with the recorded % inhibition T4 90' 20 of O=C1CSC2=NC3=C(CCc4ccccc43)C(c3cccs3)N12 (centres unmarked) only.
8

Answer with the recorded % inhibition T4 90' 20 of Cc1ccc(N2CCC(NC(=O)Cc3cccs3)C2=O)cc1C (centres unmarked) only.
26

Answer with the recorded % inhibition T4 90' 20 of `O=C(CCc1csc(NC(=O)Nc2ccccc2)n1)Nc1nc2ccccc2s1` only.
5.54

Answer with the recorded % inhibition T4 90' 20 of `Cc1nc(C)c2c(n1)N(CC1CCCCC1)C(=O)CC2` only.
7

Answer with the recorded % inhibition T4 90' 20 of CC(C)CC(C(=O)O)N1C(=O)C2C3C=CC(C2C1=O)C1C(=O)N(C(CC(C)C)C(=O)O)C(=O)C31 (centres unmarked) only.
11

Answer with the recorded % inhibition T4 90' 20 of `CCCc1ccc(Oc2coc3cc(OC)ccc3c2=O)cc1` only.
-7

Answer with the recorded % inhibition T4 90' 20 of `CC(=O)OCC1=C(C(=O)[O-])N2C(=O)[C@@H](NC(=O)Cc3cccs3)[C@H]2SC1.[Na+]` only.
17

Answer with the recorded % inhibition T4 90' 20 of `Nc1cc(Oc2ccc(O)c(N)c2)ccc1O` only.
-7

Answer with the recorded % inhibition T4 90' 20 of `Cn1nc(-c2nc(-c3ccccc3)no2)c2c1CCN(C(=O)Cc1cccs1)C2` only.
21

Answer with the recorded % inhibition T4 90' 20 of `N#Cc1c(O)nc(N2CCCCC2)nc1-c1ccc2c(c1)OCO2` only.
-10

Answer with the recorded % inhibition T4 90' 20 of `Cc1cccc(-c2noc(C(=O)NNC(=O)C(Cl)(Cl)Cl)n2)c1` only.
-8

Answer with the recorded % inhibition T4 90' 20 of `Cn1nc(-c2nnc(-c3ccccc3F)o2)c2c1CCN(C(=O)c1ccccc1Cl)C2` only.
0.601

Answer with the recorded % inhibition T4 90' 20 of `CC(=O)Nc1cc(C(=O)c2cccs2)nn(-c2ccc(Cl)cc2)c1=O` only.
-2

Answer with the recorded % inhibition T4 90' 20 of `Cc1ccsc1Cn1c(C)ccc1C` only.
9
